Tested on: SNB-19 CNS
ASSAY DETAILS: NCI-60 one-dose screen, 48 h (100 = growth as untreated, 0 = no growth, -100 = all killed)
EXPERIMENTAL CONTEXT: 10 µM unless noted
About 83,000 compounds went through this panel and 20% of them were active in at least one assay; those are over-represented in the sample as a whole.
Threshold check on growth: strictly below 90% is TRUE; on or above 90% is FALSE.

Just wondering, is growth of CCN(CC)CCOc1ccccc1-n1c(C)ccc1-c1ccccc1 below 90%?
FALSE

A record lists Cc1cc(=O)n2n1-c1ccc(Cl)cc1NC(=O)C2 . Is its growth below 90%?
FALSE

Hello, I'm reviewing records and need to know if growth of Fc1ccc(-c2nnc(/C=C/c3cn(-c4ccccc4)nc3-c3ccccc3)o2)cc1 is below 90%. Could you check?
FALSE

Given the entry CCCCCCCC/C=C/CCCCCCCC1=NC(C)(C)CN1CC(C)O (stereo unspecified) , would its reported growth be below 90%?
TRUE

hey, is growth for c1ccc(-c2nnc(Nc3nnc(-c4ccccc4)s3)s2)cc1 lower than 90% or not?
FALSE

growth strictly < 90% for this molecule? Cc1nn(-c2ccc(Cl)cc2)c2nc3c(nc12)c(=O)oc1ccccc13
FALSE

In plain terms, does O=NC1CC=CCC1c1ccccc1 (stereo unspecified) come in under 90% for growth?
FALSE

Lab note: growth threshold 90%. Does this molecule come in strictly under it? COc1cc(/C=C/C(=O)Nc2ccc3c(c2)/C(=C\c2cccn2C)C(=O)N3)cc(OC)c1OC
TRUE

growth under 90%? Item: O=C(/C=C/c1cccnc1)NCCCCC1CCCN(C(=O)c2ccccc2)C1 (stereo unspecified)
TRUE

Take the molecule Cc1ccc(C=C2C(Cl)=C(Cl)C(Cl)=C2Cl)cc1 and say whether its growth is less than 90%.
TRUE

Quick check: growth of CC1(C)OC(=O)C(=Cc2ccccc2Br)C(=O)O1 under 90%?
FALSE

growth under 90%? Item: COc1cc(C2CC(c3ccc(C)cc3)=NN2C(C)=O)ccc1Oc1ccnc2cc(Cl)ccc12 (stereo unspecified)
TRUE

Could you please tell me whether growth recorded for Clc1cccc(Cc2cn3cc(-c4ccccc4)nc3s2)c1 is less than 90%?
TRUE
